Reported protein stability index by item:
B1: IKZF1 (parent)
chain: HIKLHSGEKPFKCHLCNYACRRRD

Variants of: B1
procedure summary: protein stability index of a GFP-peptide fusion (GPS, HEK-293T) (PSI 1-6); higher = more stable;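 further: lentivirally expressed fusions sorted by FACS into six bins by GFP to DsRed ratio, PSI derived from sequencing read proportions per bin multiplied by bin number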
experimental parameters: c terminus: a fixed tail appended
value kind: protein stability index

- biopolymer sequence: "HIKLHSGEKPFKCHLCNHACRRRD"
  value kind: "protein stability index"
  result: 1.82
- biopolymer sequence: "HIKLHSGEKPCKCHLCNYACRRRD"
  value kind: "protein stability index"
  result: 1.83
- biopolymer sequence: "HIKLHSGEKPFKSHLCNYACRRRD"
  value kind: "protein stability index"
  result: 2.36
- biopolymer sequence: "HIKLHSGEKPFKCHLCNYACRRRN"
  value kind: "protein stability index"
  result: 1.76
- biopolymer sequence: "HMKLHSGEKPFKCHLCNYACRRRD"
  value kind: "protein stability index"
  result: 2.6
- biopolymer sequence: "HIKLHVGEKPFKCHLCNYACRRRD"
  value kind: "protein stability index"
  result: 1.16
- biopolymer sequence: "HIKLHSGLKPFKCHLCNYACRRRD"
  value kind: "protein stability index"
  result: 1.79
- biopolymer sequence: "HITLHSGEKPFKCHLCNYACRRRD"
  value kind: "protein stability index"
  result: 1.9
- biopolymer sequence: "HIKLHSGEKPFKCGLCNYACRRRD"
  value kind: "protein stability index"
  result: 1.89
- biopolymer sequence: "GIKLHSGEKPFKCHLCNYACRRRD"
  value kind: "protein stability index"
  result: 2
- biopolymer sequence: "HIKLHSGEKPFKCFLCNYACRRRD"
  value kind: "protein stability index"
  result: 2.32
- biopolymer sequence: "HIKLHSGEKPFKCHLCNYACRRDD"
  value kind: "protein stability index"
  result: 2.18
- biopolymer sequence: "HIKLHSGEKPFKCHLCNYAMRRRD"
  value kind: "protein stability index"
  result: 2.5
- biopolymer sequence: "HIKLHSGERPFKCHLCNYACRRRD"
  value kind: "protein stability index"
  result: 1.81
- biopolymer sequence: "HIKLHSGEKPFKCHLCNYACRNRD"
  value kind: "protein stability index"
  result: 1.2
- biopolymer sequence: "HIKLHFGEKPFKCHLCNYACRRRD"
  value kind: "protein stability index"
  result: 2.19
- biopolymer sequence: "HIKRHSGEKPFKCHLCNYACRRRD"
  value kind: "protein stability index"
  result: 2.48
- biopolymer sequence: "HIKLHSGEKPFKGHLCNYACRRRD"
  value kind: "protein stability index"
  result: 3.04
- biopolymer sequence: "HIKLHSGEKPFKCHLCNYACRRLD"
  value kind: "protein stability index"
  result: 1.44
- biopolymer sequence: "HIKLHSGEKPFKCHLCNYACRLRD"
  value kind: "protein stability index"
  result: 1.72
- biopolymer sequence: "HIKLHSGEKPFKCHLCNYACVRRD"
  value kind: "protein stability index"
  result: 1.3
- biopolymer sequence: "HIKLHSGEKPFKCHFCNYACRRRD"
  value kind: "protein stability index"
  result: 1.89
